The reported numbers originate from patent US20190282704A1.

# target.desc: canine IL-31 (Canine_IL31) (canine)
# Sequence (chain, as listed by the source limits assumed, form in doubt): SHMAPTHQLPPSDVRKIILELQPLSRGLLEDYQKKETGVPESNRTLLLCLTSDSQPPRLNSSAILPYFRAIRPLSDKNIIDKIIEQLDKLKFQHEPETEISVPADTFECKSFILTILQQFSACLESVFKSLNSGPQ
# method.summary: SPR (Biacore), immobilised IL-31, 1:1 fit
recorded.metric: kon (M⁻¹ s⁻¹)
Kindly answer with a numeric value in M⁻¹ s⁻¹, unit omitted.

Feline 15H05 VH2 mouse VL (antibody, V domains shown) VH: QVLLVQSGAEVRTPGASVKIFCKASGYGFTSYTIHWVRQSPAQGLEWMGNINPTSGYTENNQRFKDRLTLTADTSTNTAYMELSSLRSADTAMYYCARWGFKYDGEWSFDVWGAGTTVTVSS VL: DIQMNQSPSSLSASLGDTITVTCRASQGISIWLSWYQQKPGNIPKVLINKASNLHIGVPPRFSGSGSGTHFTLTITSLQPEDIATYYCLQSQTYPLTFGGGTKLEIN	171000

Prompt: Output kon of Feline 15H05 1.1 FW3 (antibody, V domains shown) VH: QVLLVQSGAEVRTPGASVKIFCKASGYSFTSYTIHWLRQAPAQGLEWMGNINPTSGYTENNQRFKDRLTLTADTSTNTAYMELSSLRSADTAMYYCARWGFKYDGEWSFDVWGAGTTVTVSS VL: EIQMTQSPSSLSASPGDRVTITCRASQGISIWLSWYQQKPGKVPKLLIYKASNLHIGVPPRFSGSGSGTHFTLTITSLQPEDIATYYCLQSQTYPLTFGGGTKLEIK
Completion: 3000
